# Tested on: UniProt Q81VW8
# Assay remarks: biochemical
# Type: binding
# Particulars: SPR KD(eq)
Measurement name: Kd

Compound | Measurement name | Observed result
CC(C(=O)O)c1n[nH]c2nc(N)[nH]c(=O)c2c1=O (stereo not drawn) | Kd | 123 nM
Cn1nc(CC(=O)O)c(=O)c2c(=O)[nH]c(N)nc21 | Kd | 190 nM

Q: Using the record for `Nc1nc2[nH]nc(CC(=O)O)c(=O)c2c(=O)[nH]1` , report its Kd.
A: 110 nM

====

# Tested on: BaDHPS (Bacillus anthracis)
# Assay remarks: biochemical
# Type: biochemical
Measurement name: log10 of IC50 (log10 of the value in µM)
Scale: decimal log of IC50, IC50 in µM.

Compound | log10 of IC50
Cn1nc(CC(=O)O)c(=O)c2c(=O)[nH]c(N)nc21 | 1.51
COC(=O)CCc1n[nH]c2nc(N)[nH]c(=O)c2c1=O | 2.41
Nc1nc2[nH]nc(CC(=O)O)c(=O)c2c(=O)[nH]1 | 1.26
CC(CC(=O)O)c1nn(C)c2nc(N)[nH]c(=O)c2c1=O (stereo not shown) | 2.16

Respectfully, I request log10 of IC50 for each entry included below.
1. Nc1nc2[nH]nc(CCC(=O)O)c(=O)c2c(=O)[nH]1
2. CC(CC(=O)O)c1n[nH]c2nc(N)[nH]c(=O)c2c1=O (stereo not shown)

A:
1: 1.56; 2: 1.76

====

# Tested on: BaDHPS (Bacillus anthracis, UniProt Q81VW8)
# Sequence (Q81VW8 1-280): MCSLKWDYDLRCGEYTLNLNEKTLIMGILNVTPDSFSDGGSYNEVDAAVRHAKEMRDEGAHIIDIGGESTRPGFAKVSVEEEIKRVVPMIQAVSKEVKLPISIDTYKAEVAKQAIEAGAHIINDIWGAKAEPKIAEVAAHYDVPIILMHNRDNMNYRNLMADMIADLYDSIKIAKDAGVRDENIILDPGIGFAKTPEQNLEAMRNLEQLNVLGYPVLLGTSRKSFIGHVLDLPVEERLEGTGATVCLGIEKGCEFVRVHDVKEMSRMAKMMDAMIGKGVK
# Assay remarks: biochemical
# Format: biochemical
# Particulars: read-out: Enzyme Inhibition Activity% @250μM
Classify by measured inhibition at 250 µM: 1 if it is equal to or exceeds 90%, 0 if it is smaller.

Example results:
Molecule | Assigned class
COC(=O)CCc1n[nH]c2nc(N)[nH]c(=O)c2c1=O [Compound 22] | 0
Cn1nc(C(=O)O)c(=O)c2c(=O)[nH]c(N)nc21 [Compound 5] | 0
CC(C(=O)O)c1n[nH]c2nc(N)[nH]c(=O)c2c1=O (stereo not drawn) [Compound 19] | 1
CC(CC(=O)O)c1nn(C)c2nc(N)[nH]c(=O)c2c1=O (stereo not drawn) [Compound 17] | 0
CC(CC(=O)O)c1n[nH]c2nc(N)[nH]c(=O)c2c1=O (stereo not drawn) [Compound 24] | 0

Q: Check the entry Cn1nc(CC(=O)O)c(=O)c2c(=O)[nH]c(N)nc21 [Compound 16] : does inhibition at 250 µM equal or exceed 90%?
A: 1

Q: Please indicate if the recorded inhibition at 250 µM for Cn1nc(CCC(=O)O)c(=O)c2c(=O)[nH]c(N)nc21 [Compound 18] meets or exceeds 90%.
A: 0

====

# Tested on: BaDHPS (Bacillus anthracis, UniProt Q81VW8)
# Assay remarks: biochemical
# Format: binding
# Particulars: SPR KD
Measurement name: pKd
One number for each entry, as −log10 of the molar value.

Answered cases to consult:
Compound | pKd
Cn1nc(CC(=O)O)c(=O)c2c(=O)[nH]c(N)nc21 [Compound 16] | 6.69
CC(C(=O)O)c1n[nH]c2nc(N)[nH]c(=O)c2c1=O (stereo not drawn) [Compound 19] | 6.92

Q: If you can, please state the reported pKd value of Nc1nc2[nH]nc(CC(=O)O)c(=O)c2c(=O)[nH]1 [Compound 23] .
A: 6.98
